ASSAY_PROCEDURE: NCI Yeast Anticancer Drug Screen. Data for the mlh1 strain (AID 171);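 also: 0% = growth of vehicle-treated control cultures of the same strain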
CONDITIONS: S. cerevisiae mlh1 strain growth inhibition; at 3.7 µM
About 79,000 compounds went through this panel and 15% of them were active in at least one assay; those are over-represented in the sample as a whole. The source made the active and inactive calls. Rule as the data show it: active = growth inhibition above about 70%; inactive = the rest.
# valid calls are 1 for active, 0 for inactive; nothing else

COMPOUND: NNc1nnc(-c2ccccc2)nc1Cc1ccccc1
CATEGORY_LABEL: 0

COMPOUND: CN(C)c1ccc(/C=C/c2ccnc3ccc4ccccc4c23)cc1
CATEGORY_LABEL: 0

COMPOUND: Cc1c(N=Nc2ccc(Cl)cc2)c(C)n(C2OC(CO)C(O)C(O)C2O)c(=S)c1C#N (centres undefined)
CATEGORY_LABEL: 0

Test call, this compound: `CN(C)N1C(=O)SCC(c2ccccc2)(c2ccccc2)C1=O` 0

Test call, this compound: `O=C(O)/C=C\C(=O)NNc1ccc(Br)cc1` 1

Test call, this compound: OC(c1ccc(Br)cc1)(c1cccs1)C1CC1 (centres undefined) 0

Test call, this compound: c1ccc2cc(OCC3CO3)c(OCC3CO3)cc2c1 (centres undefined) 0

Test call, this compound: CCOC(=O)C(NC(=O)c1ccccc1)[CH](c1ccccc1)[Sn]([c]1ccccc1)([c]1ccccc1)[c]1ccccc1 (centres undefined) 0

Test call, this compound: `Oc1ccc(Cc2nccc3cc(O)c(O)cc23)cc1O` 0

###

ASSAY_PROCEDURE: NCI Yeast Anticancer Drug Screen. Data for the bub3 strain (AID 167)
CONDITIONS: S. cerevisiae bub3 mutant strain, at 50.0 µM (retest, dose inferred, filed as 5.0)
The panel holds about 79,000 compounds, 15% with a hit somewhere; the sample as a whole holds those more often. Calls of active or inactive are those of the source. Rule as the data show it: active = growth inhibition above about 70%; inactive = the rest.
# valid calls are active, inactive; nothing else

These solved cases illustrate the format of a correct answer.
COMPOUND: CCOc1ccccc1N1C(=O)CC(Sc2ccccc2N)C1=O (configuration not stated)
CATEGORY_LABEL: inactive

COMPOUND: O=C(/C(=C/c1ccccc1)CBr)c1ccccc1
CATEGORY_LABEL: active

COMPOUND: O=C(Nn1c(-c2ccccc2)nc2ccccc2c1=O)c1ccc(Cl)cc1
CATEGORY_LABEL: inactive

COMPOUND: CCN(CC)c1cccc(Nc2nc3ccccc3s2)c1
CATEGORY_LABEL: active

COMPOUND: Cc1c2ccncc2c(C)c2c1oc1ccccc12
CATEGORY_LABEL: active

Test call, this compound: `Cc1ccnc(NS(=O)(=O)c2ccc(Nc3c4ccccc4nc4ccccc34)cc2)n1` inactive

Test call, this compound: `CC1=Cc2ccc(C)cc2C(=O)C1=O` active

###

The reader will find reported growth inhibition values listed item by item below.
ASSAY_PROCEDURE: NCI Yeast Anticancer Drug Screen. Data for the rad14 strain (AID 159);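 also: 0% = growth of vehicle-treated control cultures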
CONDITIONS: S. cerevisiae rad14 strain growth inhibition; at 3.7 µM; hits give high values
This is part of a sample that, as a whole, favours compounds with a hit. Of some 79,000 tested, about 15% had one in any assay.
Enter your answer as a number in %; do not include the unit.

Specify growth inhibition for `O=S(=O)(O)c1ccc2c(N=Nc3c(O)ccc4ccccc34)cccc2c1` and stop. 1

Specify growth inhibition for `CCCCCCCCCC/C=C\CC(=O)O` and stop. 1

Specify growth inhibition for `CN(Cc1cccc2ccccc12)Cc1cccc2ccccc12` and stop. 2

Specify growth inhibition for `Nc1ccc2ncc(Nc3ccc(Cl)c(Cl)c3)nc2c1` and stop. -9

Specify growth inhibition for `Cc1ccc(C(C)C)c(C(=C2C=CC(=[N+](C)C)C=C2)c2c(C(C)C)ccc(C)c2O)c1O` and stop. 19

Specify growth inhibition for Cc1ccccc1C1=C(CC(=O)O)c2ccccc2CC1C (centres undefined) and stop. 11

Specify growth inhibition for S=C1NC2=C(CSC/C2=C\c2ccc(Cl)cc2)C(c2ccc(Cl)cc2)N1 (centres undefined) and stop. 26

Specify growth inhibition for c1ccc(C2=NNC3c4ccccc4-c4ccccc4N3C2)cc1 (centres undefined) and stop. -11

Specify growth inhibition for `O=C(CSS(=O)(=O)O)c1ccccc1` and stop. 3

Specify growth inhibition for O=C1OC(c2ccc(Cl)cc2)Sc2ccccc21 (centres undefined) and stop. 11

Specify growth inhibition for `CCCC(=O)OC(OC(=O)CCC)c1ccc([N+](=O)[O-])o1` and stop. -4

Specify growth inhibition for `O=C1c2ccccc2C(=O)C1C(c1ccc(F)cc1)C1C(=O)c2ccccc2C1=O` and stop. -20

Specify growth inhibition for `Cc1cccc[c]1[Sn]([Cl])([S]/C(C#N)=N/N=C/c1ccc(N(C)C)cc1)[c]1ccccc1C` and stop. 3

Specify growth inhibition for `Cc1c2ccncc2c(C)c2c1oc1ccccc12` and stop. 29

Reference for the values: PubChem BioAssay (NCI)
